The compounds below have reported pIC50 for UniProt:Q9UM73.
Sequence (Q9UM73 whole entry): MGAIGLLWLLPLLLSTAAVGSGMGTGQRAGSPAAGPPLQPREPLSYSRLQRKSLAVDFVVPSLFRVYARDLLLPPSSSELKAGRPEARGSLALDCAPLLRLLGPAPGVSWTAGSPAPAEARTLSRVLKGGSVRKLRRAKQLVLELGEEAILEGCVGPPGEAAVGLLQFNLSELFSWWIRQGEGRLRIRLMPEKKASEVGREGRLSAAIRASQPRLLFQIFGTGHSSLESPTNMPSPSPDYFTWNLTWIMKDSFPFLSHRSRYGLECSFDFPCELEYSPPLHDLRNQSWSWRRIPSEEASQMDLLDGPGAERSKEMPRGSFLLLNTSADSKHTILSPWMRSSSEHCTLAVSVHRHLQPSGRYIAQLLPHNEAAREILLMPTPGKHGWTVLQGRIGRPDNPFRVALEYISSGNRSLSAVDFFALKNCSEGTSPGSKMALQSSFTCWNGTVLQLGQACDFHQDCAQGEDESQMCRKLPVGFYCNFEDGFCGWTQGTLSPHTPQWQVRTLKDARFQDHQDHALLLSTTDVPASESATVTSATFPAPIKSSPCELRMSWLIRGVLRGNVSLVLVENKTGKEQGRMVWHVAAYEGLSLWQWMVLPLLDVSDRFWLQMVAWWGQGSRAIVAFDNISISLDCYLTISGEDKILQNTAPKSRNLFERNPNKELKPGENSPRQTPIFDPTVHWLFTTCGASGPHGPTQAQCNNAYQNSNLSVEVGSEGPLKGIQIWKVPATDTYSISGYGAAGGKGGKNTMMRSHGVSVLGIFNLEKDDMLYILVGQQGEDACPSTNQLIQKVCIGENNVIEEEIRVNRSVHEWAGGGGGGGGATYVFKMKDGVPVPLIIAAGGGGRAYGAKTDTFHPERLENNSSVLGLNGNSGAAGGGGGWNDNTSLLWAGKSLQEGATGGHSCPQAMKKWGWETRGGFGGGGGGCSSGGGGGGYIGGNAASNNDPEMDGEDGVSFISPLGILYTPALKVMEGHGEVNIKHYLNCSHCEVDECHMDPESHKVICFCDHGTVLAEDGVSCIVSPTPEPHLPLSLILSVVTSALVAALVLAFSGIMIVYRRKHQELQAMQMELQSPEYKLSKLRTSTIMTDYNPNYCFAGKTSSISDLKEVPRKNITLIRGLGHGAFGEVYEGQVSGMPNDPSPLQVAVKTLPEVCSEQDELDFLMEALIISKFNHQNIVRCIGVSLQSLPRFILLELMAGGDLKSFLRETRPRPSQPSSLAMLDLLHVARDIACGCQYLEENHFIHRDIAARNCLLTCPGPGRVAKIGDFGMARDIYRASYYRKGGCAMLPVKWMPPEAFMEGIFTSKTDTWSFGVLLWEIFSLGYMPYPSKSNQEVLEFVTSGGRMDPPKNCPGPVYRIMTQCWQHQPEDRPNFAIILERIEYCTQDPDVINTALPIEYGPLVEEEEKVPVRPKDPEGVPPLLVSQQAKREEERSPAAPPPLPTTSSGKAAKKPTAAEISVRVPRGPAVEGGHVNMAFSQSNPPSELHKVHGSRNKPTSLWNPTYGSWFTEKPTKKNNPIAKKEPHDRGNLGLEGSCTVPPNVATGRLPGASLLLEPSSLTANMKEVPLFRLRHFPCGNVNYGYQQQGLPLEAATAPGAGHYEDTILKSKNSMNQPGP
Interpret pIC50 as the negative base-10 log of the concentration measured in mol/L.

Quick one: pIC50 of `Cc1cc(-c2cccc(N)c2)c(/C=C2\C(=O)Nc3ccc(N)cc32)[nH]1` ?
7.29

====

molecular target: UniProt:Q9UM73
pIC50: −log10 of the molar value.
Use yes (1) when the recorded pIC50 is no lower than 6; use no (0) when it is lower.

| compound | target_desc | answer_label |
| --- | --- | --- |
| O=C1Nc2ccccc2/C1=C/c1c[nH]nc1-c1ccccc1 | UniProt:Q9UM73 | no (0) |
| Oc1ccccc1-c1nc(Nc2ccc(Cl)cc2)c2ccccc2n1 | UniProt:Q9UM73 | no (0) |
| CC1CN(Cc2c(-c3cccs3)[nH]c3ncccc23)CC(C)O1 (stereo not drawn) | UniProt:Q9UM73 | no (0) |
| COc1c(OCCN2CCCCC2)cc(F)c2c(-c3ccc(O)c(Cl)c3)nc3[nH]nc(C)c3c12 | UniProt:Q9UM73 | yes (1) |
| COc1cc2ncnc(Nc3ccc(O)cc3)c2cc1OC [WHI-P131] | UniProt:Q9UM73 | no (0) |

Say whether `Cc1[nH]c(/C=C2\C(=O)Nc3ccccc32)c(C)c1-c1ccc(NCCN)cc1` shows pIC50 of 6 or more.
yes (1)

Also need `Cc1[nH]c(/C=C2\C(=O)Nc3ccccc32)c(C)c1-c1cccc(NCCN)c1` , thanks.
yes (1)

Also need `COc1cc2c(-c3ccc(O)cc3)nc3[nH]nc(C)c3c2cc1OC` , thanks.
yes (1)
